test system: Escherichia coli; assay: Antimicrobial activity against Escherichia coli ATCC 9637 after 24 hrs by standard broth microdilution method; assay type: functional; details: ATCC 9637, 24 h
Provide the recorded MIC for the entries that follow.
Write it as a number; the unit µg/mL goes unstated.

Lab book: MIC of `COC(=O)/C(C)=C/c1ccc(Oc2ccccc2N/C(=N/c2ccc(Cl)cc2)NCCCCNc2ccnc3cc(Cl)ccc23)cc1` noted as 12.5

Lab book: MIC of `COC(=O)/C(C)=C/c1ccc(Oc2ccc(N/C(=N/c3cccc(Cl)c3)NCCCNc3ccnc4cc(Cl)ccc34)cc2)cc1` noted as 6.25

Lab book: MIC of `COc1ccc(Oc2ccc(N/C(=N/c3ccccc3)NCCCCNc3ccnc4cc(Cl)ccc34)cc2)cc1` noted as 50

Lab book: MIC of `Clc1cccc(/N=C(\NCCNc2ccnc3cc(Cl)ccc23)Nc2ccccc2Oc2cc(Cl)ccc2Cl)c1` noted as 6.25

Lab book: MIC of `COc1ccc(Oc2ccccc2N/C(=N/c2ccc(Cl)cc2)NCCNc2ccnc3cc(Cl)ccc23)cc1` noted as 50

Lab book: MIC of `COC(=O)/C(C)=C/c1ccc(Oc2ccccc2N/C(=N/c2cccc(Cl)c2)NCCCCNc2ccnc3cc(Cl)ccc23)cc1` noted as 12.5

Lab book: MIC of `Clc1ccc(Cl)c(Oc2ccc(N/C(=N/c3ccccc3)NCCCCNc3ccnc4cc(Cl)ccc34)cc2)c1` noted as 12.5

Lab book: MIC of `Clc1cccc(/N=C(\NCCCCNc2ccnc3cc(Cl)ccc23)Nc2ccc(Oc3cc(Cl)ccc3Cl)cc2)c1` noted as 6.25

Lab book: MIC of `COC(=O)/C(C)=C/c1ccc(Oc2ccc(N/C(=N/c3ccccc3)NCCNc3ccnc4cc(Cl)ccc34)cc2)cc1` noted as 12.5

Lab book: MIC of `COC(=O)/C(C)=C/c1ccc(Oc2ccc(N/C(=N/c3ccccc3)NCCCNc3ccnc4cc(Cl)ccc34)cc2)cc1` noted as 50

###

Provide the recorded selectivity ratio for the entries that follow.
test: Selectivity index, ratio of IC50 for african green monkey Vero cells to IC50 for chloroquine-sensitive Plasmodium falciparum 3D7; assay type: toxicity, cell-based; conditions: read-out: Ratio IC50

Lab book: selectivity ratio of `COC(=O)/C(C)=C/c1ccc(Oc2ccc(N/C(=N/c3ccc(Cl)cc3)NCCCNc3ccnc4cc(Cl)ccc34)cc2)cc1` noted as 100

Lab book: selectivity ratio of `COC(=O)/C(C)=C/c1ccc(Oc2ccccc2N/C(=N/c2ccc(Cl)cc2)NCCCCNc2ccnc3cc(Cl)ccc23)cc1` noted as 102

Lab book: selectivity ratio of `COc1ccc(Oc2ccc(N/C(=N/c3ccccc3)NCCCNc3ccnc4cc(Cl)ccc34)cc2)cc1` noted as 97.8

###

tested on: Plasmodium falciparum; test: Antiplasmodial activity against chloroquine-resistant Plasmodium falciparum K1 infected after 72 hrs by Malaria SYBR Green I-staining based fluorescence assay; assay type: functional, organism-based; details: K1, 72 h
quantity_measured: IC50

Lab book: IC50 of `Clc1ccc(/N=C(\NCCCNc2ccnc3cc(Cl)ccc23)Nc2ccc(Oc3cc(Cl)ccc3Cl)cc2)cc1` noted as > 0.8 µM

Lab book: IC50 of `Clc1ccc(Cl)c(Oc2ccc(N/C(=N/c3ccccc3)NCCCCNc3ccnc4cc(Cl)ccc34)cc2)c1` noted as > 0.826 µM

Lab book: IC50 of `COC(=O)/C(C)=C/c1ccc(Oc2ccc(N/C(=N/c3ccccc3)NCCCNc3ccnc4cc(Cl)ccc34)cc2)cc1` noted as > 0.8 µM
